Assay: In vivo biodistribution in mice
Set-up: species or system normal CD-1 male mice
Conditions: iv, 60 min (1 hr) post injection
Give Biodistribution: Spleen for every item shown.
Answer format: numeric, % dose/g implied, no suffix.

Could you share which Biodistribution: Spleen value was measured for O=C([O-])CN1CCN(CC(=O)[O-])CCN(CC(=O)NCCNC(=O)CCc2ccc(O)c(CN(CCN(CC(=O)O)Cc3cc(CCC(=O)NC(P(=O)(O)O)P(=O)(O)O)ccc3O)CC(=O)O)c2)CCN(CC(=O)[O-])CC1.[177Lu+3] [[^177Lu]1h] ?
0.07

Could you share which Biodistribution: Spleen value was measured for O=C([O-])CN(CCN(CC(=O)[O-])Cc1cc(CCC(=O)N[C@@H](CCC(=O)O)C(=O)O)ccc1[O-])Cc1cc(CCC(=O)NC(P(=O)(O)O)P(=O)(O)O)ccc1[O-].[68Ga+3] [[^68Ga]1f] ?
0.12

Could you share which Biodistribution: Spleen value was measured for O=C([O-])CN(CCN(CC(=O)[O-])Cc1cc(CCC(=O)NC(P(=O)(O)O)P(=O)(O)O)ccc1[O-])Cc1cc(CCC(=O)NCC(=O)O)ccc1[O-].[68Ga+3] [[^68Ga]1c] ?
0.74

Could you share which Biodistribution: Spleen value was measured for O=C([O-])CN(CCN(CC(=O)[O-])Cc1cc(CCC(=O)NC(P(=O)(O)O)P(=O)(O)O)ccc1[O-])Cc1cc(CCC(=O)NCCNC(=O)CN2CCN(CC(=O)O)CCN(CC(=O)O)CCN(CC(=O)O)CC2)ccc1[O-].[68Ga+3] [[^68Ga]1h] ?
0.07

Could you share which Biodistribution: Spleen value was measured for O=C([O-])CN(CCN(CC(=O)[O-])Cc1cc(CCC(=O)N[C@@H](CC(=O)O)C(=O)O)ccc1[O-])Cc1cc(CCC(=O)NC(P(=O)(O)O)P(=O)(O)O)ccc1[O-].[68Ga+3] [[^68Ga]1e] ?
0.09

Could you share which Biodistribution: Spleen value was measured for O=C([O-])CN(CCN(CC(=O)[O-])Cc1cc(CCC(=O)NC(P(=O)(O)O)P(=O)(O)O)ccc1[O-])Cc1cc(CCC(=O)NCCCCCC(=O)NCCCC[C@H](NC(=O)N[C@@H](CCC(=O)O)C(=O)O)C(=O)O)ccc1[O-].[68Ga+3] [[^68Ga]1g] ?
0.91

* * *

Assay: In vivo biodistribution in mice
Design: species or system normal CD-1 male mice
Conditions: iv, 60 min (1 hr) post injection
Measured parameter: Biodistribution: Liver (% dose/g)
Answer format: numeric, % dose/g implied, no suffix.

Could you share which Biodistribution: Liver value was measured for O=C([O-])CN(CCN(CC(=O)[O-])Cc1cc(CCC(=O)NC(P(=O)(O)O)P(=O)(O)O)ccc1[O-])Cc1cc(CCC(=O)NCCNC(=O)CN2CCN(CC(=O)O)CCN(CC(=O)O)CCN(CC(=O)O)CC2)ccc1[O-].[68Ga+3] [[^68Ga]1h] ?
0.07

Could you share which Biodistribution: Liver value was measured for O=C([O-])CN(CCN(CC(=O)[O-])Cc1cc(CCC(=O)NC(P(=O)(O)O)P(=O)(O)O)ccc1[O-])Cc1cc(CCC(=O)NCCCCCC(=O)NCCCC[C@H](NC(=O)N[C@@H](CCC(=O)O)C(=O)O)C(=O)O)ccc1[O-].[68Ga+3] [[^68Ga]1g] ?
0.18

Could you share which Biodistribution: Liver value was measured for O=C([O-])CN(CCN(CC(=O)[O-])Cc1cc(CCC(=O)NC(P(=O)(O)O)P(=O)(O)O)ccc1[O-])Cc1cc(CCC(=O)NCCCNC(=O)CCc2ccc(O)c(CN(CCN(CC(=O)O)Cc3cc(CCC(=O)NC(P(=O)(O)O)P(=O)(O)O)ccc3O)CC(=O)O)c2)ccc1[O-].[68Ga+3] [[^68Ga]3] ?
23.5

Could you share which Biodistribution: Liver value was measured for O=C(O)CN1CCN(CC(=O)O)CCN(CC(=O)NC(P(=O)(O)O)P(=O)(O)O)CCN(CC(=O)O)CC1.[68Ga] [[^68Ga]BPAMD, reference compound] ?
0.25
